Values were extracted from patent US10172830B2.

biological target: human neutrophil elastase (HNE) (Homo sapiens, UniProt P08246); test: HNE enzyme assay (human neutrophil elastase enzyme activity assay); settings: human leukocyte elastase 0.00072 U/mL; substrate MeOSuc-Ala-Ala-Pro-Val-AMC 100 μM; 25° C. for 30 minutes; at least two separate experiments; read-out: HNE inhibition (HNE enzyme inhibition, IC50 values)
measurement-name: IC50

Solved entries:
- smiles: "Cn1cc[n+](C[C@H]2CC[C@H](NC(=O)c3c(-c4ccnn4-c4ccc(C#N)cc4)n(C)n(-c4cccc(C(F)(F)F)c4)c3=O)CC2)c1"
  tested-on: "human neutrophil elastase (HNE) (Homo sapiens, UniProt P08246)"
  endpoint-value: "< 1 nM"
- smiles: "Cc1cc(C[N+](C)(C)CC(=O)N2CCC(NC(=O)c3c(-c4ccnn4-c4ccc(C#N)cc4)n(C)n(-c4cccc(C(F)(F)F)c4)c3=O)CC2)no1"
  tested-on: "human neutrophil elastase (HNE) (Homo sapiens, UniProt P08246)"
  endpoint-value: "< 1 nM"

Form field: reported IC50 of "CN(CC1CC[N+](C)(C)CC1)C(=O)C(C)(C)NC(=O)c1c(-c2ccnn2-c2ccc(C#N)cc2)n(C)n(-c2cccc(C(F)(F)F)c2)c1=O"
< 1 nM

###

Target: human neutrophil elastase (HNE) (Homo sapiens)
Assay: HNE enzyme assay (human neutrophil elastase enzyme activity assay)
Conditions: human leukocyte elastase 0.00072 U/mL; substrate MeOSuc-Ala-Ala-Pro-Val-AMC 100 μM; 25° C. for 30 minutes; at least two separate experiments; read-out: HNE inhibition (HNE enzyme inhibition, IC50 values)
Experimental: Compounds of the present invention were tested for potency in a human neutrophil elastase (HNE) enzyme activity assay. Assays were performed in 96-well plates in a total assay volume of 100 μL. […] Fluorescence was measured using a Molecular Devices fluorescence plate reader using 380 nm excitation and 460 nm emission wavelengths. A dose response to each compound was performed and the effect of compound in each experiment was expressed as a percentage inhibition of the control enzyme fluorescence. […]
measurement-name: IC50

- compound: "C[C@H](NC(=O)c1c(-c2ccnn2-c2ccc(C#N)cc2)n(C)n(-c2cccc(C(F)(F)F)c2)c1=O)c1ncc(CC[N+](C)(C)C)o1 [Example 52]"
  endpoint-value: "1 to 10 nM"

# input compound: Cn1c(-c2ccnn2-c2ccc(C#N)cc2)c(C(=O)NC2CCN(C(=O)C3CC[N+](C)(C)CC3)CC2)c(=O)n1-c1cccc(C(F)(F)F)c1 [Example 39] ; wanted: its IC50
< 1 nM

What about this compound? C[C@H](NC(=O)c1c(-c2ccnn2-c2ccc(C#N)cc2)n(C)n(-c2cccc(C(F)(F)F)c2)c1=O)C(=O)N1CC[N+](C)(Cc2ccccc2)CC1 [Example 27]
< 1 nM

Moving on to Cn1c(-c2ccnn2-c2ccc(C#N)cc2)c(C(=O)N[C@@H]2C[C@@H]3CN(C(=O)OC(C)(C)C)C[C@@H]3C2)c(=O)n1-c1cccc(C(F)(F)F)c1 [Example 4]
< 1 nM

Likewise for Cn1c(-c2ccnn2-c2ccc(C#N)cc2)c(C(=O)N[C@H]2CC[C@H](C(=O)NCC[N+](C)(C)C)CC2)c(=O)n1-c1cccc(C(F)(F)F)c1 [Example 42] ?
< 1 nM

Let us now turn to C[C@H](NC(=O)c1c(-c2ccnn2-c2ccc(C#N)cc2)n(C)n(-c2cccc(C(F)(F)F)c2)c1=O)c1nnc(C[N+](C)(C)C)o1 [Example 37]
< 1 nM

Now this one: CN(C)CC(=O)N1CCC(NC(=O)c2c(-c3ccnn3-c3ccc(C#N)cc3)n(C)n(-c3cccc(C(F)(F)F)c3)c2=O)CC1 [Example 6]
< 1 nM

###

molecular target: human neutrophil elastase (HNE) (Homo sapiens, UniProt P08246); experiment: HNE enzyme assay (human neutrophil elastase enzyme activity assay); details: human leukocyte elastase 0.00072 U/mL; substrate MeOSuc-Ala-Ala-Pro-Val-AMC 100 μM; 25° C. for 30 minutes; at least two separate experiments; read-out: HNE inhibition (HNE enzyme inhibition, IC50 values)
measurement-name: IC50

- compound: "C[C@H](NC(=O)c1c(-c2ccnn2-c2ccc(C#N)cc2)n(C)n(-c2cccc(C(F)(F)F)c2)c1=O)C(=O)N(C)C1CC[N+](C)(C)CC1 [Example 56]"
  IC50: "< 1 nM"
- compound: "Cn1c(-c2ccnn2-c2ccc(C#N)cc2)c(C(=O)NC(C)(C)c2ncc(C[N+](C)(C)C)o2)c(=O)n1-c1cccc(C(F)(F)F)c1 [Example 48]"
  IC50: "< 1 nM"

Endpoint output: IC50 of Cn1c(-c2ccnn2-c2ccc(C#N)cc2)c(C(=O)N[C@H]2CC[C@H](OC(=O)C[N+](C)(C)C)CC2)c(=O)n1-c1cccc(C(F)(F)F)c1 [Example 62] . Value?
< 1 nM

Try this compound too: CN1CCC(OC(=O)[C@H]2CC[C@H](NC(=O)c3c(-c4ccnn4-c4ccc(C#N)cc4)n(C)n(-c4cccc(C(F)(F)F)c4)c3=O)CC2)CC1 [Example 13]
< 1 nM

Now consider C[C@H](NC(=O)c1c(-c2ccnn2-c2ccc(C#N)cc2)n(C)n(-c2cccc(C(F)(F)F)c2)c1=O)c1ncc(C[N+](C)(C)Cc2ccccc2)o1 [Example 31] .
< 1 nM

Okay, and C[C@H](NC(=O)c1c(-c2ccnn2-c2ccc(C#N)cc2)n(C)n(-c2cccc(C(F)(F)F)c2)c1=O)C(=O)N1CCCN(C)CC1 [Example 17] ?
< 1 nM

Again, but for Cn1c(-c2nccn2-c2ccc(C#N)cc2)c(C(=O)NC2CCCC2)c(=O)n1-c1cccc(C(F)(F)F)c1 [Example 72]
< 1 nM

###

Target: human neutrophil elastase (HNE) (Homo sapiens, UniProt P08246)
Construct: purchased Sigma E8140
Sequence (P08246 30-247 limits assumed): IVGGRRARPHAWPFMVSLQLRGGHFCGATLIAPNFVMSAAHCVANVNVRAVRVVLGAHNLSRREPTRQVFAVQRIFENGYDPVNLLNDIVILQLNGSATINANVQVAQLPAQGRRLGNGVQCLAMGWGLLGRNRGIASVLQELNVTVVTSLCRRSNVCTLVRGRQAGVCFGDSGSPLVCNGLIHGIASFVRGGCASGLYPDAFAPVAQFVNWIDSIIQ
Experiment: HNE enzyme assay (human neutrophil elastase enzyme activity assay)
Assay type: biochemical
Details: human leukocyte elastase 0.00072 U/mL; substrate MeOSuc-Ala-Ala-Pro-Val-AMC 100 μM; 25° C. for 30 minutes; at least two separate experiments; read-out: HNE inhibition (HNE enzyme inhibition, IC50 values)
pIC50: −log10 of the molar value.
pIC50 for assorted compounds

The examples below pair each entry with its known result.
- smiles: "Cn1c(-c2ccnn2-c2ccc(C#N)cc2)c(C(=O)NCC[N+](C)(C)C)c(=O)n1-c1cccc(C(F)(F)F)c1"
  endpoint-value: "8.00 to 9.00"
- smiles: "Cn1c(-c2ccnn2-c2ccc(C#N)cc2)c(C(=O)N[C@H]2CC[C@H](C[N+](C)(C)Cc3ccccc3)CC2)c(=O)n1-c1cccc(C(F)(F)F)c1"
  endpoint-value: "> 9.00"

Moving on to the next compound.
# get_value(readout='pIC50', item= "CN(C)Cc1cnc(C(C)(C)NC(=O)c2c(-c3ccnn3-c3ccc(C#N)cc3)n(C)n(-c3cccc(C(F)(F)F)c3)c2=O)o1" )
> 9.00

###

# pIC50 per record follows
biological target: human neutrophil elastase (HNE) (Homo sapiens, UniProt P08246); assay: HNE enzyme assay (human neutrophil elastase enzyme activity assay); conditions: human leukocyte elastase 0.00072 U/mL; substrate MeOSuc-Ala-Ala-Pro-Val-AMC 100 μM; 25° C. for 30 minutes; at least two separate experiments; read-out: HNE inhibition (HNE enzyme inhibition, IC50 values)
pIC50: −log10 of the molar value.

Solved cases (5 shown):
- smiles: "C[C@H](NC(=O)c1c(-c2ccnn2-c2ccc(C#N)cc2)n(C)n(-c2cccc(C(F)(F)F)c2)c1=O)C(=O)N1CCC([N+](C)(C)Cc2ccccc2)CC1"
  pIC50: "> 9.00"
- smiles: "CN1CCC(NC(=O)[C@H]2CC[C@H](NC(=O)c3c(-c4ccnn4-c4ccc(C#N)cc4)n(C)n(-c4cccc(C(F)(F)F)c4)c3=O)CC2)CC1"
  pIC50: "> 9.00"
- smiles: "C[C@H](NC(=O)c1c(-c2ccnn2-c2ccc(C#N)cc2)n(C)n(-c2cccc(C(F)(F)F)c2)c1=O)C(=O)N1CC[N+](C)(C)CC1"
  pIC50: "> 9.00"
- smiles: "C[C@H](NC(=O)c1c(-c2ccnn2-c2ccc(C#N)cc2)n(C)n(-c2cccc(C(F)(F)F)c2)c1=O)C(=O)N(C)CC[N+](C)(C)C"
  pIC50: "> 9.00"
- smiles: "Cn1c(-c2ccnn2-c2ccc(C#N)cc2)c(C(=O)NC2CCN(C(=O)CC[N+](C)(C)C)CC2)c(=O)n1-c1cccc(C(F)(F)F)c1"
  pIC50: "> 9.00"

Here is the next item to consider.
Which pIC50 is listed for "CN1CCC(NC(=O)c2c(-c3ccnn3-c3ccc(C#N)cc3)n(C)n(-c3cccc(C(F)(F)F)c3)c2=O)CC1" ?
8.00 to 9.00
